- tested-target: human MASP-2 (human, UniProt O00187 16-686)
- Sequence (O00187 16-686): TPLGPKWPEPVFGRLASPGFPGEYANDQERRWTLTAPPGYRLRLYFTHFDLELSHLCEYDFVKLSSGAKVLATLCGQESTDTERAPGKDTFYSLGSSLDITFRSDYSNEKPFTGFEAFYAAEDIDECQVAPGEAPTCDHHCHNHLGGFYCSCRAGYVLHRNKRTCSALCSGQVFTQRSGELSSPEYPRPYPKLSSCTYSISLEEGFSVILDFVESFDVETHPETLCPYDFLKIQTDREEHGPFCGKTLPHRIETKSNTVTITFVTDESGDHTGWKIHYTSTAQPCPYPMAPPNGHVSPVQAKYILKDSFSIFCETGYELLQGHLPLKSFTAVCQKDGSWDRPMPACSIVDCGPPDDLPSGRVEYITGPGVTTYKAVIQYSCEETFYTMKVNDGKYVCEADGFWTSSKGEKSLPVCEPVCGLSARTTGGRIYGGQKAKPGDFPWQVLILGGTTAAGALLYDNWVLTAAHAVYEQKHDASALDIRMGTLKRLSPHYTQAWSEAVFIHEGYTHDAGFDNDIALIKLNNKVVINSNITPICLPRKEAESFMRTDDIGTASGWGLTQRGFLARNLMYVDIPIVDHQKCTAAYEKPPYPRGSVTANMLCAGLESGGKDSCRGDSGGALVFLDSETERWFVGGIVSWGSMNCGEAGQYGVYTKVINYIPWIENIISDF
- experimental-protocol: cell-based or functional assay
In this section we review reported Functional IC50, C3b deposition, human serum Exp #1 values for a set of binders.
result-type: Functional IC50, C3b deposition, human serum Exp #1 (nM)

[
  {
    "binder": "scFv mother clone 9P13 (scFv) scFv: QVQLQQSGPGLVKPSQTLSLTCAISGDSVSSNSAAWNWIRQSPSRGLEWLGRTYYRSKWYNDYAVSVKSRITINPDTSKNQFSLQLNSVTPEDTAVYYCARDPFGVPFDIWGQGTMVTVSSKLSGSASAPKLEEGEFSEARVSYELTQLPSVSVAPGQTARVTCGGNNIRSKNVHWYQQKPGQAPVLVVYDDTDRPSGIPERFSGSNSGNTATLTVSRVEAGDEADYYCQVWDTTTDHVVFGGGTKVTVLAAAGSEQKLISEEDLNSHHHHHH",
    "result-unit": "nM",
    "numeric-readout": 28.9
  },
  {
    "binder": "scFv mother clone 17N16 (scFv, also called 17N16mc; 17N16m) scFv: QVQLQQSGPGLVKPSQTLSLTCAISGDSVSSTSAAWNWIRQSPSRGLEWLGRTYYRSKWYNDYAVSVKSRITINPDTSKNQFSLQLNSVTPEDTAVYYCARDPFGVPFDIWGQGTMVTVSSKLSGSASAPKLEEGEFSEARVSYVLTQPPSVSVAPGQTARITCGGNNIGSKNVHWYQQKPGQAPVLVVYDDSDRPSGIPERFSGSNSGNTATLTVSRVEAGDEADYYCQVWDTTTDHVVFGGGTKLTVLAAAGSEQKLISEEDLNSHHHHHH",
    "result-unit": "nM",
    "numeric-readout": 15.4
  }
]

The values you see were collected from patent US20170088632A1.
